- Test system: Escherichia coli
- Procedure Summary: Activity in vitro: Minimum Inhibitory Concentration
- Assay type: cell-based
- Test Context: Escherichia coli strain 1
Reported MIC values follow for various compounds
Numeric only. Scale: µg/mL

| Compound | Units | MIC |
| --- | --- | --- |
| Cn1c(SCC2=C(C(=O)O)N3C(=O)[C@@H](NC(=O)C(=NOCC(N)=O)c4ccco4)[C@H]3SC2)n[nH]c(=O)c1=O [Compound G] | µg/mL | 0.31 |
| CON=C(C(=O)N[C@@H]1C(=O)N2C(C(=O)O)=C(CSc3nc(=O)c(=O)[nH]n3C)CS[C@H]12)c1cccs1 [Compound E] | µg/mL | 2.5 |
| CCn1nc(SCC2=C(C(=O)O)N3C(=O)[C@@H](NC(=O)C(=NOC)c4ccco4)[C@H]3SC2)[nH]c(=O)c1=O [Compound F] | µg/mL | 1.2 |

Using the record for CON=C(C(=O)N[C@@H]1C(=O)N2C(C(=O)O)=C(CSc3n[nH]c(=O)c(=O)n3C)CS[C@H]12)c1ccco1 [Compound D] , state its measured MIC.
0.16

Using the record for CON=C(C(=O)N[C@@H]1C(=O)N2C(C(=O)O)=C(CSc3nc(=O)c(=O)[nH]n3C)CS[C@H]12)c1ccco1 [Compound A] , state its measured MIC.
0.63

Using the record for CON=C(C(=O)N[C@@H]1C(=O)N2C(C(=O)O)=C(CSc3nc(=O)c(=O)[nH]n3C)CS[C@H]12)c1ccccc1 [Compound C] , state its measured MIC.
1.2

Using the record for CON=C(C(=O)N[C@@H]1C(=O)N2C(C(=O)O)=C(CSc3ccn(N)c(=O)n3)CS[C@H]12)c1ccco1 [Compound B] , state its measured MIC.
2.5
